Catalogue of molecules with associated pIC50
system: recombinant human AMCase (Homo sapiens, UniProt Q9BZP6)
Sequence (Q9BZP6 22-476): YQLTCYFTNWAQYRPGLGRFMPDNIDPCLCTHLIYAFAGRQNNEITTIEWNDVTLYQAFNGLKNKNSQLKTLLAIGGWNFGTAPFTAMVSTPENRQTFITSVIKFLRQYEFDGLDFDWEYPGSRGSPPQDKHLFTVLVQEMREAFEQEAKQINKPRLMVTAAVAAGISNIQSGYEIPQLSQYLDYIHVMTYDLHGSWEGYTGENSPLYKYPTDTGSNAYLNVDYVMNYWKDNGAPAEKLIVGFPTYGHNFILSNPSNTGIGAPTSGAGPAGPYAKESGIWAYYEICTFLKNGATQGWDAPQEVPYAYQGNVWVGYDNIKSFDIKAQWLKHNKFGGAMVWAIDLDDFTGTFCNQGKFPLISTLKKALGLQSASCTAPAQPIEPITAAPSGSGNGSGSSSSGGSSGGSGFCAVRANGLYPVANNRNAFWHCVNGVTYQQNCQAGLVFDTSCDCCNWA
measurement.description: Human AMCase Activity Assay
measurement.context: recombinant hAMCase, 4-methylumbelliferyl chitobioside substrate, citrate buffer pH 5.2, 37° C., 60 minutes; read-out: Activity (IC50 value key)
pIC50: −log10 of the molar value. Where a name gives a salt, the structure may show the parent alone.

Examples from the recorded data:
- molecule: "Nc1n[nH]c(N2CCC(N(CCc3ccc(Cl)cc3)Cc3ccc4ccccc4c3)CC2)n1"
  pIC50: "> 7.00"
- molecule: "Nc1n[nH]c(N2CCNCC2)n1 [Example 38, trihydrochloride]"
  pIC50: "< 4.00"

Given the entry `CCOc1ccc(CN2CCN(c3nc(N)n[nH]3)CC2)cc1` , report its measured pIC50.
< 4.00

If you can, please state the reported pIC50 value of `Nc1n[nH]c(N2CCC(C(=O)NCc3cccc(F)c3)CC2)n1` .
< 4.00

For `Nc1n[nH]c(N2CCN(C(=O)COc3ccccc3)CC2)n1` , what is its reported pIC50?
< 4.00

# lookup: pIC50 of `Nc1n[nH]c(N2CCC(NS(=O)(=O)Cc3cccc(Cl)c3)CC2)n1`
5.00 to 6.00

Find the recorded pIC50 belonging to `CC(C)(C)CCN(CCc1ccc(Cl)cc1)C1CCN(c2nc(N)n[nH]2)CC1` and report it.
> 7.00

Which pIC50 reading was recorded for the molecule Nc1n[nH]c(N2CCC3C(CCCN3CCc3ccc(Br)cc3)C2)n1 (stereo not drawn) [Example 253, dihydrochloride] ?
> 7.00

What does the data say about its pIC50? Entry: `Nc1n[nH]c(N2CCN(CCOc3ccc(Cl)cc3)CC2)n1`
5.00 to 6.00

----------
Form field: IC50 (one value per entry).
system: recombinant human AMCase (Homo sapiens)
measurement.description: Human AMCase Activity Assay
Assay type: biochemical
measurement.context: recombinant hAMCase, 4-methylumbelliferyl chitobioside substrate, citrate buffer pH 5.2, 37° C., 60 minutes; read-out: Activity (IC50 value key)
Counter-ions that a name gives are not always drawn.

Param item = Nc1n[nH]c(N2CCC(N(CCc3ccc(Cl)cc3)Cc3ccccc3CO)CC2)n1 [Example 164, dihydrochloride] ; retrieve measured IC50.
< 0.1 µM

Which IC50 is listed for `Nc1n[nH]c(N2CCC(CNC(=O)c3ccc(F)cc3F)CC2)n1` ?
> 100 µM

Consider the compound CN(CCc1ccc(Cl)cc1)C1CCN(c2nc(N)n[nH]2)CC1F (stereo not drawn) [Example 249] and give its measured IC50.
1 to 10 µM

Quick one: IC50 for `Nc1n[nH]c(N2CCC(NC(=O)Nc3ccc(F)c(F)c3)CC2)n1` ?
> 100 µM

Give the measured IC50 of CC(Cc1ccc(Cl)cc1)N(C)C1CCN(c2nc(N)n[nH]2)CC1 (stereo not drawn) [Example 141, dihydrochloride] .
0.1 to 1 µM

What value of IC50 has been reported for the following compound? `Nc1n[nH]c(N2CCC(C(=O)NCc3ccc(OC(F)(F)F)cc3)CC2)n1`
> 100 µM

What does the record list as IC50 for `Nc1n[nH]c(N2CCN(CCOc3ccccc3F)CC2)n1` ?
10 to 100 µM

Dear colleague, I am looking for the recorded IC50 of the following compound: `Nc1n[nH]c(N2CCC(C(=O)NCc3ccc(F)cc3)CC2)n1`
> 100 µM

Can you share its IC50? I mean this compound: `Cn1nc(N)nc1N1CCN(CCOc2ccc(Br)cc2)CC1`
> 100 µM
